- subjectOfTest: Calmodulin-1 (Homo sapiens)
- measurementProtocol: CALM1 binders on microarrays, EGTA buffer, profiling panel, biochemical, small-molecule microarray, Cy5-labelled CALM1 (AID 1111);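 also: labelled calmodulin applied in Tris saline Tween buffer holding calcium plus EGTA and DTT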
- condition: Cy5-CALM1 binding fluorescence, higher = more signal
Rule: composite z-score under -0.3 gives 0, otherwise 1.

Before answering, review these 3 worked examples.
CC(C)(C)N1C(=O)[C@H]2[C@H]3[C@H](O)[C@H](O)CC(=O)[C@H]3CC[C@H]2C1=O: 1
C[C@@H](c1ccccc1)N1C(=O)[C@H]2[C@H]3[C@H](O)[C@H](O)CC(=O)[C@H]3CC[C@H]2C1=O: 1
CCOC(=O)[C@H](CC(C)C)NC(=O)CCC1CC(OC(=O)NCc2cccc3ccccc23)CC2(CCCC(COC(=O)NCCOc3ccccc3)O2)O1 (stereo partly specified): 1

[in] API: above_or_equal(metric=composite z-score, cutoff=-0.3) for item C[C@@H]1C=CCC(=O)OC[C@H]2O[C@@H](C=C[C@@H]2O)[C@H](C)C=CCC(=O)OC1
[out] 0

[in] API: above_or_equal(metric=composite z-score, cutoff=-0.3) for item COC(=O)NCC=Cc1nc(CCCO)co1
[out] 0

[in] API: above_or_equal(metric=composite z-score, cutoff=-0.3) for item CC(C)=CCCC(C)=CCON=C1C[C@@H](O)[C@@H](O)[C@@H]2[C@@H]3C(=O)N(C4CCCCC4)C(=O)[C@@H]3CC[C@@H]12
[out] 0

[in] API: above_or_equal(metric=composite z-score, cutoff=-0.3) for item CC(C)=CCCC(C)=CCON=C1C[C@@H](O)[C@@H](O)[C@@H]2[C@@H]3C(=O)N(C(C)(C)C)C(=O)[C@@H]3CC[C@H]12
[out] 0

[in] API: above_or_equal(metric=composite z-score, cutoff=-0.3) for item O=C1C2=CC[C@H]3C(=O)N(c4cccc(Oc5ccccc5)c4)C(=O)[C@H]3[C@H]2[C@H](O)[C@@H]2O[C@H]12
[out] 1

[in] API: above_or_equal(metric=composite z-score, cutoff=-0.3) for item CCOC(=O)[C@H](CC(C)C)NC(=O)CCC1CC(OC(=O)NCc2cccc3ccccc23)CC2(CCCC(COC(=O)NCc3cccc(C(F)(F)F)c3)O2)O1 (stereo partly specified)
[out] 0

[in] API: above_or_equal(metric=composite z-score, cutoff=-0.3) for item O=c1n(-c2ccccc2)c(=O)n2n1CC[C@@H]1C(=NOCc3ccccc3)[C@H]3O[C@H]3[C@@H](O)[C@@H]12
[out] 0

[in] API: above_or_equal(metric=composite z-score, cutoff=-0.3) for item CO[C@H]1COC(=O)CC=C[C@H](C)[C@@H](OC)COC(=O)[C@H](C)COC(=O)CC=C[C@@H]1C
[out] 0

[in] API: above_or_equal(metric=composite z-score, cutoff=-0.3) for item COC(=O)[C@@H]1CC[C@H](C)[C@@H](c2ccc(C)cc2)N1C(=O)c1ccc(C=NO[C@H](C)c2cn([C@@H]3COC[C@H]3O)nn2)cc1
[out] 1

[in] API: above_or_equal(metric=composite z-score, cutoff=-0.3) for item CON=C(C)CCC(=O)OC[C@H]1O[C@H](c2ccccc2)C=C[C@@H]1Oc1ccc(OC)cc1
[out] 0

* * *

- Tested on: glycogen synthase kinase-3 (GSK3A per assay name; protocol says GSK3B)
- measurementProtocol: GSK3 binders on small-molecule microarrays, primary screen, biochemical, small-molecule microarray, 635 nm fluorescence, GSK3A (AID 1103); also: the record names both GSK3A and GSK3B
- condition: small-molecule microarray binding, fluorescence 635 nm; higher = more signal
endpoint: composite z-score
Numbers only.

Please state composite z-score for every molecule in the list that follows.
1. C[C@@H]1CC[C@H]2C(=O)O[C@@H](Cc3ccccc3)CN2[C@H]1c1ccc(Br)cc1
2. CCOC(=O)NN=C1C[C@@H](O)[C@@H](O)[C@@H]2[C@@H]3C(=O)N(Cc4ccccc4)C(=O)[C@@H]3CC[C@H]12
3. CCOC(=O)NN=C1C[C@@H](O)[C@@H](O)[C@@H]2[C@@H]3C(=O)N([C@@H](C)c4ccccc4)C(=O)[C@@H]3CC[C@@H]12
4. COC(=O)[C@@H]1CC[C@H](C)[C@@H](c2ccc(C)cc2)N1C(=O)c1ccc(C=NO[C@@H](C)c2cn([C@H](CO)Cc3ccccc3)nn2)cc1

[out]
1. 0.177
2. -0.435
3. 1.12
4. 1.16

* * *

- subjectOfTest: Torsin-1A (Homo sapiens)
- measurementProtocol: torsin A binders from cell lysate, primary screen, small-molecule microarray, wild-type, 635/667 nm (AID 1149)
- condition: COS7 hTOR1A-WT lysate, 635 nm fluorescence, higher = more signal
I'd appreciate it if you could supply composite z-score values for the items below.

COC(=O)CC=C[C@@H](C)[C@@H](C=NO[C@@H]1O[C@H](COC(C)=O)[C@@H](OC(C)=O)[C@H](OC(C)=O)[C@H]1OC(C)=O)NS(=O)(=O)c1ccc(C)cc1: 0.514

Please state composite z-score for every molecule in the list that follows.
1. C#CCCCON=C1C[C@@H](O)[C@@H](O)[C@@H]2[C@@H]3C(=O)N(CC)C(=O)[C@@H]3CC[C@@H]12
2. CO[C@H]1COC(=O)[C@@H](Cc2ccccc2)NC(=O)[C@@H](C)COC(=O)CCC[C@@H]1C

[out]
[0.787, 0.656]

[in] Short answer please: composite z-score, Torsin-1A (Homo sapiens), entry COc1cc(O)c(C(=O)C=Cc2ccc3c(c2)OCO3)c(OC)c1
[out] -0.404

* * *

- subjectOfTest: Luciferin 4-monooxygenase (Photinus pyralis) (UniProt P08659)
- Sequence (P08659 whole entry, looked up): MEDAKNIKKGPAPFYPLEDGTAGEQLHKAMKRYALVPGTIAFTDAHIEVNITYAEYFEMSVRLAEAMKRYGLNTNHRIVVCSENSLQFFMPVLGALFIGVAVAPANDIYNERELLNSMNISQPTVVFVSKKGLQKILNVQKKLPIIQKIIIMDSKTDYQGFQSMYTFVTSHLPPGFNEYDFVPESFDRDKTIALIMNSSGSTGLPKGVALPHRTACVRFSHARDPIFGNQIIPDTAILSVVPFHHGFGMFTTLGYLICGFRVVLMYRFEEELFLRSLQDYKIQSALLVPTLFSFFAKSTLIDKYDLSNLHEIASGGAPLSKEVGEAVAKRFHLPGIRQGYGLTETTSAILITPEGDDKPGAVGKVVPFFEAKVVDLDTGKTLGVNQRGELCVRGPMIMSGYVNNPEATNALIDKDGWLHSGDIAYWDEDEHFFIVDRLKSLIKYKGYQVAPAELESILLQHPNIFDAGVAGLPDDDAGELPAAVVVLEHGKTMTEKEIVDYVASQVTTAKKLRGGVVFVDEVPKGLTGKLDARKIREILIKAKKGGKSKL
- measurementProtocol: firefly luciferase enzyme inhibitors, primary screen, biochemical, luminescence, purified enzyme, 2006 set (AID 1141);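 also: cell-free assay with purified firefly luciferase at 100 ng per well in PBS; test concentration not given here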
- condition: SteadyGlo luminescence, 30 min, higher = more signal, called active from +8 up or from −8 down
Active and inactive are the calls of the source.
endpoint: z-score

Illustrative cases are given below, each with its answer.
CCOC(=O)[C@H](CC(C)C)NC(=O)CCC1CC(OC(=O)NCc2ccc3c(c2)OCO3)CC2(CCCC(COC(=O)NCCCN3CCCC3=O)O2)O1 (some centres undefined): 0.0579 (inactive)
Cc1ccc(S(=O)(=O)n2c3ccccc3c3nnc(C(=O)c4ccccc4)nc32)cc1: -4.76 (inactive)
CCCNC(=O)OC[C@H]1O[C@H](CCON=C(C)CCC(=O)OC[C@H]2O[C@H](c3ccccc3)C=C[C@@H]2Oc2ccc(OC)cc2)C=C[C@@H]1Oc1ccc(OC)cc1: 1 (inactive)

Now consider the entry below.
[in] Quick one: z-score of COC(=O)[C@@H]1CC[C@H](C)[C@@H](c2ccc(C)cc2)N1C(=O)c1ccc(C=NO[C@@H](C)c2cn([C@H](CO)Cc3ccccc3)nn2)cc1 ?
[out] -0.249 (inactive)

* * *

- measurementProtocol: HepG2 liver cancer cell viability effects, profiling panel, resazurin fluorescence, 24 h, PK04 Diversity Set (AID 1172); also: test concentration not given here
- condition: higher = more signal
endpoint: z-score
Give bare numbers.

CCN1C(=O)[C@@H]2[C@H]3C(=CC[C@@H]2C1=O)C1(OCCCO1)[C@H]1O[C@H]1[C@H]3O: -2.61
CO[C@H]1COC(=O)CC=C[C@@H](C)[C@H](NS(=O)(=O)c2ccc(C)cc2)COC(=O)CCC[C@@H]1C: 0.703
CCOC(=O)[C@H](CC(C)C)NC(=O)CCC1CC(OC(=O)NCCc2ccc(F)cc2)CC2(CCCC(COC(=O)NCCC(C)C)O2)O1 (some centres undefined): -0.566
CC(C)CON=C1C[C@@H](O)[C@@H](O)[C@@H]2[C@@H]3C(=O)N(C4CCCCC4)C(=O)[C@@H]3CC[C@H]12: -0.451
CON=C1[C@H]2CCn3c(=O)n(-c4ccccc4)c(=O)n3[C@H]2[C@H](O)[C@@H]2O[C@H]12: 0.348
CO[C@@H]1COC(=O)CC=C[C@@H](C)[C@H](OC)COC(=O)[C@@H](C)COC(=O)CC=C[C@H]1C: 0.225
O=C1[C@H]2[C@H]3[C@H](O)[C@H](O)CC(=NOCc4ccccc4)[C@H]3CC[C@H]2C(=O)N1Cc1ccc2c(c1)OCO2: 0.616
CO[C@H]1COC(=O)CCC[C@@H](C)[C@H](OC)COC(=O)[C@@H]2CCCN2C(=O)CC=C[C@@H]1C: -0.145
CO[C@H]1COC(=O)CC=C[C@@H](C)[C@H](OC)COC(=O)[C@@H]2CCCN2C(=O)CC=C[C@@H]1C: 0.251
O=c1n(-c2ccccc2)c(=O)n2n1CC[C@@H]1C(=NOCc3ccccc3)[C@H]3O[C@H]3[C@@H](O)[C@@H]12: -1.28

Please state z-score for every compound in the list that follows.
1. CC(C)CON=C1C[C@@H](O)[C@@H](O)[C@@H]2[C@@H]3C(=O)N(C4CCCCC4)C(=O)[C@@H]3CC[C@@H]12
2. COC(=O)[C@H]1[C@@H](O)[C@@]2(O)c3ccccc3O[C@@]2(c2ccccc2)[C@@H]1c1ccccc1
3. COc1ccc(O[C@H]2C=C[C@@H](c3ccccc3)O[C@@H]2CON=C(C)CCC(=O)OC[C@H]2O[C@H](c3ccccc3)C=C[C@@H]2Oc2ccc(OC)cc2)cc1
4. O=c1n(Cc2cc3c(cc2Cl)OCO3)c(=O)n2n1CC[C@@H]1C(=NOC[C@@H](O)COCc3ccco3)[C@H]3O[C@H]3[C@@H](O)[C@@H]12
5. CC(CCN1CCCCc2nc(C)c(C)cc21)=NO[C@H](C)c1cn([C@H](CO)Cc2ccccc2)nn1

[out]
1: -0.577; 2: -0.314; 3: 0.319; 4: -0.0975; 5: -0.605

Please state z-score for every compound in the list that follows.
1. CC(C)=CCCC(C)=CCON=C1C[C@@H](O)[C@@H](O)[C@@H]2[C@@H]3C(=O)N(c4cccc(Oc5ccccc5)c4)C(=O)[C@@H]3CC[C@@H]12
2. CC(CCN1CCc2nc(-c3ccccc3)c(-c3ccccc3)cc2C1)=NOC[C@@H](O)COCc1ccco1
3. COc1cccc([C@H]2Oc3ccc(OC)cc3C(=NOC(C)CN3CCCCc4nc(C)c(C)cc43)[C@@H]2O)c1 (some centres undefined)
4. CCOC(=O)[C@H](CC(C)C)NC(=O)CCC1CC(OC(=O)NCc2ccc3c(c2)OCO3)CC2(CCCC(COC(=O)NCC3CCCCC3)O2)O1 (some centres undefined)
5. COc1ccc(O[C@H]2C=C[C@@H](c3ccccc3)O[C@@H]2COC(=O)CCC(C)=NO[C@@H]2O[C@H](COC(C)=O)[C@@H](OC(C)=O)[C@H](OC(C)=O)[C@H]2OC(C)=O)cc1

[out]
1: 0.171; 2: -1.2; 3: -0.621; 4: 0.471; 5: 0.0729

Please state z-score for every compound in the list that follows.
1. C=CC[C@@H]1C=C[C@H](ON=C(C)CCN2CCc3nc(-c4ccccc4)c(-c4ccccc4)cc3C2)[C@@H](CO)O1
2. CCCNC(=O)OC[C@H]1O[C@H](c2ccccc2)C=C[C@@H]1Oc1ccc(OC)cc1
3. O=C1[C@H]2[C@H]3[C@H](O)[C@H](O)CC(=NOC[C@@H](O)COCc4ccco4)[C@H]3CC[C@H]2C(=O)N1C[C@@H]1CCCO1
4. CC(CCN1CCc2nc(-c3ccccc3)c(-c3ccccc3)cc2C1)=NOC[C@@H](O)[C@H]1O[C@@H]2OC(C)(C)O[C@@H]2[C@H]1O
5. O=C1C[C@@H](O)[C@@H](O)[C@@H]2[C@@H]3C(=O)N(C[C@@H]4CCCO4)C(=O)[C@@H]3CC[C@@H]12
6. CC[C@@H](c1ccccc1)n1c(=O)n2n(c1=O)[C@H]1[C@H](O)[C@@H]3O[C@@H]3C(=NOC[C@@H](O)COCc3ccco3)[C@H]1CC2
7. COc1ccc(COC(=O)NN=C2C[C@@H](O)[C@@H](O)[C@@H]3[C@@H]4C(=O)N(Cc5ccccc5)C(=O)[C@@H]4CC[C@H]23)cc1
8. CO[C@H]1COC(=O)CC=C[C@H](C)COC(=O)[C@@H](C)NC(=O)CC=C[C@@H]1C

[out]
1: -0.244; 2: -0.889; 3: 0.639; 4: -0.31; 5: -0.429; 6: -0.466; 7: 1.35; 8: -0.251

[in] Quick one: z-score of COc1cccc([C@@H]2Oc3ccc(OC)cc3C(=O)[C@H]2O)c1 ?
[out] 0.115

Just for reference, PubChem BioAssay is where these values come from.
